Ref: patent US5618812A

Biological target: CCK-A (Rattus norvegicus, UniProt P30551)
Test: biochemical
Format: binding
Details: rat pancreas (CCK-A), 125I-CCK; read-out: CCK RECEPTOR BINDING RESULTS IC50 125I-CCK Pancreas
pIC50: −log10 of the molar value. Where a name gives a salt, the structure may show the parent alone.
Measurement kind: pIC50

Compound	Measurement kind	Value measured
CCCN1C(=O)C(NC(=O)Nc2cccc(C)c2)N=C(N2CCC(NCC(F)(F)F)CC2)c2ccccc21 (racemic) [Example 3]	pIC50	6.26
CC1CCN(C2=NC(NC(=O)Nc3cccc(N4CCN(C)CC4)c3)C(=O)N(C)c3ccccc32)CC1 (racemic) [Example 96]	pIC50	7.03
CCCN1C(=O)C(NC(=O)Nc2cccc(C)c2)N=C(N2CCC(=O)CC2)c2ccccc21 (racemic) [Example 2]	pIC50	6.06
Cc1cccc(NC(=O)NC2N=C(N3CCC(C)(C)CC3)c3ccccc3N(CC(F)(F)F)C2=O)c1 (racemic) [Example 27]	pIC50	7.82
Cc1cccc(NC(=O)NC2N=C(N3CCC(C)CC3)c3ccccc3N(C)C2=O)c1 (single isomer, unassigned) [8 (enantiomer B)]	pIC50	8.58

[a] Cc1cccc(NC(=O)NC2N=C(N3[C@H](C)CCC[C@@H]3C)c3ccccc3N(C)C2=O)c1 (some centres unmarked) [Example 6]
[b] CC1CCN(C2=NC(NC(=O)Nc3ccc4c(c3)CCC4)C(=O)N(C)c3ccccc32)CC1 (single isomer, unassigned; (-)) [Example 12, hydrochloride]
Request: For a and b , which recorded pIC50 is lower? Kindly give the label for the entry you pick.
Response: b
(b: 5.66, a: 6.63)

[a] Cc1cccc(NC(=O)NC2N=C(N(C)CC3CCCCC3)c3ccccc3N(C)C2=O)c1 (racemic) [Example 74]
[b] CCCN1C(=O)C(NC(=O)Nc2cccc(C)c2)N=C(N(C)C2CCCCC2)c2ccccc21 (single isomer, unassigned; (-)) [Example 61]
[c] CCCN1C(=O)C(NC(=O)Nc2cccc(C)c2)N=C(N(C)C2CCCCC2)c2ccccc21 (single isomer, unassigned; (+)) [Example 62]
[d] Cc1cccc(NC(=O)NC2N=C(N3CCCCC3(C)C)c3ccccc3N(C)C2=O)c1 (single isomer, unassigned) [22 (enantiomer A)]
Request: Order the records by pIC50, with each subsequent value no larger than the one before. Provide the ranking by listing each label in its place in the requested order.
Response: c, a, b, d

====

Listed molecules paired with reported pIC50
Target: CCK-A (Rattus norvegicus, UniProt P30551)
Sequence (P30551 1-444): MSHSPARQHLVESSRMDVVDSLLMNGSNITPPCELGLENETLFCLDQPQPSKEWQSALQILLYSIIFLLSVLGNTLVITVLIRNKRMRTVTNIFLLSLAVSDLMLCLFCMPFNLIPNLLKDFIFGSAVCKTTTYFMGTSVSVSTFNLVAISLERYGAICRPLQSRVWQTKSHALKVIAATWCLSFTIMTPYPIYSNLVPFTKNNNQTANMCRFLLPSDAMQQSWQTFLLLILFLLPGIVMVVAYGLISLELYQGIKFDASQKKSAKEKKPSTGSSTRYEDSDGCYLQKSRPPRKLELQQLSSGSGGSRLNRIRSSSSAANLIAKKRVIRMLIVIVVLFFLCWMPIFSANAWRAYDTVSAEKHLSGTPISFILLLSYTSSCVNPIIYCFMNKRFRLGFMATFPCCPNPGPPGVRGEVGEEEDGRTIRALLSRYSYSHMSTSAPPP
Assay: biochemical
Type: binding
Conditions: CCK RECEPTOR BINDING RESULTS IC50 125I-CCK Pancreas, rat pancreas (CCK-A), 125I-CCK
Counter-ions that a name gives are not always drawn.
For clarity, pIC50 is expressed as the negative log10 of concentration in mol/L.

Molecule	Measurement kind	Value measured
CN1C(=O)C(NC(=O)Nc2cccc(F)c2)N=C(N2CC3CCC(CC3)C2)c2ccccc21 (single isomer, unassigned; (+)) [Example 37, Hydrochloride]	pIC50	8.05

Read the next record carefully.
Request: What does the data say about its pIC50? Entry: Cc1cc(NC(=O)NC2N=C(N3CC4CCC(CC4)C3)c3ccccc3N(C)C2=O)ccc1F (single isomer, unassigned; (+)) [Example 54, Hydrochloride]
Response: 8.08

====

Biological target: CCK-B (Cavia porcellus)
Construct: guinea pig brain (CCK-B); from tissue; host or cells: guinea pig brain
Assay: displacement of specific 125I-CCK from guinea pig brain (CCK-B receptor binding)
Details: read-out: CCK RECEPTOR BINDING RESULTS IC50 125I-CCK Brain
pIC50: −log10 of the molar value. Counter-ions that a name gives are not always drawn.
Measurement kind: pIC50

Compound	pIC50
Cc1cccc(NC(=O)NC2N=C(N3CCC(C(F)(F)F)CC3)c3ccccc3N(C)C2=O)c1 (single isomer, unassigned) [20 (enantiomer B)]	7.36

[I] Cc1cccc(NC(=O)NC2N=C(N(C)C3CCCCC3)c3ccccc3N(C)C2=O)c1 (single isomer, unassigned; (+)) [Example 65, Hydrochloride]
[II] Cc1cccc(NC(=O)NC2N=C(N3CCCC(C)(C)C3)c3ccccc3N(C)C2=O)c1 (single isomer, unassigned; (-))
[III] CC(C)CN1C(=O)C(NC(=O)c2cc3ccccc3[nH]2)N=C(N2CCC(C)CC2)c2ccccc21 (racemic)
Request: Order the records by pIC50, with each subsequent value no larger than the one before. Provide the ranking by listing each label in its place in the requested order.
Response: II, I, III

====

Target: CCK-A (Rattus norvegicus, UniProt P30551)
Assay: biochemical
Format: binding
Settings: rat pancreas (CCK-A), 125I-CCK; read-out: CCK RECEPTOR BINDING RESULTS IC50 125I-CCK Pancreas
Measurement kind: IC50 (nM)

Molecule	Measurement kind	Value measured
CN1C(=O)C(NC(=O)c2cc3ccccc3[nH]2)N=C(N2CC3CCC(CC3)C2)c2ccccc21 (racemic) [Example 87]	IC50	0.87

[1] CN1C(=O)C(NC(=O)Nc2ccc3c(c2)CCC3)N=C(N(C)C2CCCCC2)c2ccccc21 (racemic) [Example 82]
[2] Cc1cccc(NC(=O)NC2N=C(N3CC4CCC(C4)C3)c3ccccc3N(C)C2=O)c1 (racemic) [Example 38]
Request: Higher IC50: 1 or 2 ? Kindly give the label for the entry you pick.
Response: 1

====

Biological target: CCK-A (Rattus norvegicus, UniProt P30551)
Assay: biochemical
Type: binding
Details: rat pancreas (CCK-A), 125I-CCK; read-out: CCK RECEPTOR BINDING RESULTS IC50 125I-CCK Pancreas
pIC50: −log10 of the molar value.
Measurement kind: pIC50

Consider the following illustrative entries.
Compound	Measurement kind	Value measured
CCCN1C(=O)C(NC(=O)Nc2cccc(C)c2)N=C(N2CCC3(CC2)OCCO3)c2ccccc21 (racemic)	pIC50	6.14
Cc1cccc(NC(=O)NC2N=C(N3CCC(C(F)(F)F)CC3)c3ccccc3N(C)C2=O)c1 (single isomer, unassigned) [20 (enantiomer A)]	pIC50	5.48
CN1C(=O)C(NC(=O)Nc2cccc(I)c2)N=C(N2CC3CCC(CC3)C2)c2ccccc21 (single isomer, unassigned; (-)) [Example 48]	pIC50	5.62
Cc1cccc(NC(=O)NC2N=C(N(C)Cc3ccccc3)c3ccccc3N(C)C2=O)c1 (racemic)	pIC50	6.75
COC1CCN(C2=NC(NC(=O)Nc3cccc(C)c3)C(=O)N(C)c3ccccc32)CC1 (single isomer, unassigned) [14 (enantiomer A)]	pIC50	5.49

[I] CCCN1C(=O)C(NC(=O)Nc2cccc(C)c2)N=C(N2CCC(C)CC2)c2ccccc21 (racemic) [Example 17]
[II] CCN(C1=NC(NC(=O)Nc2cccc(C)c2)C(=O)N(C)c2ccccc21)C1CCCCC1 (racemic)
Request: For I and II , which recorded pIC50 is lower? Kindly give the label for the entry you pick.
Response: II
(II: 6.05, I: 7.57)

====

Target: CCK-B (Cavia porcellus, UniProt H0VZC5)
Construct: guinea pig brain (CCK-B); from tissue; host or cells: guinea pig brain
Sequence (H0VZC5 1-426): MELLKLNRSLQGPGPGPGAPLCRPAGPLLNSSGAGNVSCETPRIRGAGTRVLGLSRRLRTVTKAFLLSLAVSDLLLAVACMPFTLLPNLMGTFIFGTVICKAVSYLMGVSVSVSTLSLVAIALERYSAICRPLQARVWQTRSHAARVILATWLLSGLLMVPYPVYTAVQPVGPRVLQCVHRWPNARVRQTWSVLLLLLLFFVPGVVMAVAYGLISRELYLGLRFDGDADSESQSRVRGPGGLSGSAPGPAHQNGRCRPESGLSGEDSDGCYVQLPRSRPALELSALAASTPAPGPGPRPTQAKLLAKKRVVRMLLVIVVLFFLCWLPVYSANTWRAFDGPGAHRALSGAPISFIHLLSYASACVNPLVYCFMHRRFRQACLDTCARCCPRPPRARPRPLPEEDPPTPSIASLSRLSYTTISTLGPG
Assay: displacement of specific 125I-CCK from guinea pig brain (CCK-B receptor binding)
Details: read-out: CCK RECEPTOR BINDING RESULTS IC50 125I-CCK Brain
Measurement kind: IC50 (nM)

Compound	System tested	Value measured
CCN(C1=NC(NC(=O)Nc2cccc(C)c2)C(=O)N(C)c2ccccc21)C1CCCC1 (racemic)	CCK-B (Cavia porcellus, UniProt H0VZC5)	3.12
Cc1cccc(NC(=O)NC2N=C(N(C)C3CCCCCCC3)c3ccccc3N(C)C2=O)c1 (racemic)	CCK-B (Cavia porcellus, UniProt H0VZC5)	3.67
C[C@@H]1CCC[C@H](C)N1C1=NC(NC(=O)Nc2ccc3c(c2)CCC3)C(=O)N(C)c2ccccc21 (single isomer, unassigned) [15 (enantiomer A)]	CCK-B (Cavia porcellus, UniProt H0VZC5)	3.47
